target: CYP3A4 (Homo sapiens, UniProt P08684); assay: CYP3A4 testosterone 6β-hydroxylase assay in human liver microsomes; format: in vitro ADME; settings: IC50 values CYP3A4 (in μg/ml, in brackets), HLM; μM bound converted to μg/ml
Sequence (P08684 whole entry): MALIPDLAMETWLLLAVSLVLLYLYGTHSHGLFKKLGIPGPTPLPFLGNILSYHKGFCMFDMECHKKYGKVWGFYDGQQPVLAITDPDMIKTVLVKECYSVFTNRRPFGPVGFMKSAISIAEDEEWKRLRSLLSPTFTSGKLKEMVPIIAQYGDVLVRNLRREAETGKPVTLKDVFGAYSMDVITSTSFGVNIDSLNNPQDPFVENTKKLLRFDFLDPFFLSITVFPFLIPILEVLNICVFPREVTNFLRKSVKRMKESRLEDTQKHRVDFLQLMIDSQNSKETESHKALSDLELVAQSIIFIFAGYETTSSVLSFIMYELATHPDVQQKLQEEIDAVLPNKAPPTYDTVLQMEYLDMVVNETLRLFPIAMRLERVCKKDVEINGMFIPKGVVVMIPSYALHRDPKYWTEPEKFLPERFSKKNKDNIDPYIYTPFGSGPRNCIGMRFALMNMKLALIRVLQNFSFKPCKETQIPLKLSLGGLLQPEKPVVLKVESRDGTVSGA
quantity_name: IC50

CC1(C)CC[C@]2(C(=O)O)CC[C@]3(C)C(=CC[C@@H]4[C@@]5(C)C[C@@H](O)[C@H](O)[C@@](C)(CO)[C@@H]5CC[C@]43C)[C@@H]2[C@@H]1O [Arjungenin, arjungenin] = > 49.5 µM

IC50 lookup needed for CC1(C)CC[C@]2(C(=O)O)CC[C@]3(C)C(=CC[C@@H]4[C@@]5(C)C[C@@H](O)[C@H](O)C(C)(C)[C@@H]5CC[C@]43C)[C@@H]2[C@@H]1O [Arjunic acid] , thanks.
> 51.2 µM

* * *

Listing: IC50 of selected molecules
biological target: UniProt P10635; assay: CYP2D6 dextromethorphan O-demethylation assay in human liver microsomes; type: in vitro ADME; settings: IC50 values CYP2D6, HLM; dextromethorphan 8 μM; tested 1–50 μM

CC1(C)CC[C@]2(C(=O)O)CC[C@]3(C)C(=CC[C@@H]4[C@@]5(C)C[C@@H](O)[C@H](O)[C@@](C)(CO)[C@@H]5CC[C@]43C)[C@@H]2[C@@H]1O = > 50 µM

Kindly consider the entry below.
Reported IC50 for "CC1(C)CC[C@]2(C(=O)O)CC[C@]3(C)C(=CC[C@@H]4[C@@]5(C)C[C@@H](O)[C@H](O)C(C)(C)[C@@H]5CC[C@]43C)[C@@H]2[C@@H]1O" : what is it?
> 50 µM

* * *

biological target: CYP2C9 (Homo sapiens, UniProt P11712); experiment: CYP2C9 diclofenac 4′-hydroxylation assay in human liver microsomes; conditions: IC50 values CYP2C9 (in μg/ml, in brackets), HLM; μM bound converted to μg/ml
Sequence (P11712 whole entry): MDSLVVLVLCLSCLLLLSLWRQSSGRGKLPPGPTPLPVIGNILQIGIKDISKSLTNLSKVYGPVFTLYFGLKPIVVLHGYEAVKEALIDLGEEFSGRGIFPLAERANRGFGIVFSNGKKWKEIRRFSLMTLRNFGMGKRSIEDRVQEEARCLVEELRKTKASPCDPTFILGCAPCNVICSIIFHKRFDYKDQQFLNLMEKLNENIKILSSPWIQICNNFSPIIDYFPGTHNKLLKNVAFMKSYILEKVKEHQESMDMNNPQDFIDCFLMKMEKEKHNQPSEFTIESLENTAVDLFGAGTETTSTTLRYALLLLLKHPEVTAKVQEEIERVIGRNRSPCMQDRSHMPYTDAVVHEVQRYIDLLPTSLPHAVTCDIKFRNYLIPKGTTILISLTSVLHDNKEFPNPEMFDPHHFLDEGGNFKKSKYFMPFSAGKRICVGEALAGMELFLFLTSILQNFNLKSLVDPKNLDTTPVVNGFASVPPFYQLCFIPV
Listing: IC50 of selected compounds

GET /values?readout=IC50&item= "CC1(C)CC[C@]2(C(=O)O)CC[C@]3(C)C(=CC[C@@H]4[C@@]5(C)C[C@@H](O)[C@H](O)C(C)(C)[C@@H]5CC[C@]43C)[C@@H]2[C@@H]1O"
> 51.2 µM

Likewise for "CC1(C)CC[C@]2(C(=O)O)CC[C@]3(C)C(=CC[C@@H]4[C@@]5(C)C[C@@H](O)[C@H](O)[C@@](C)(CO)[C@@H]5CC[C@]43C)[C@@H]2[C@@H]1O" ?
> 49.5 µM

* * *

molecular target: UniProt:P11712; test: CYP2C9 diclofenac 4′-hydroxylation assay in human liver microsomes; settings: IC50 values CYP2C9, HLM; diclofenac 50 μM; tested 1–50 μM
pIC50: −log10 of the molar value.
quantity_name: pIC50

CC1(C)CC[C@]2(C(=O)O)CC[C@]3(C)C(=CC[C@@H]4[C@@]5(C)C[C@@H](O)[C@H](O)[C@@](C)(CO)[C@@H]5CC[C@]43C)[C@@H]2[C@@H]1O = < 4.30

# input compound: "CC1(C)CC[C@]2(C(=O)O)CC[C@]3(C)C(=CC[C@@H]4[C@@]5(C)C[C@@H](O)[C@H](O)C(C)(C)[C@@H]5CC[C@]43C)[C@@H]2[C@@H]1O" ; wanted: its pIC50
< 4.30

* * *

IC50: recorded values
biological target: CYP2D6 (Homo sapiens); test: CYP2D6 dextromethorphan O-demethylation assay in human liver microsomes; format: in vitro ADME; details: IC50 values CYP2D6 (in μg/ml, in brackets), HLM; μM bound converted to μg/ml
Sequence (P10635 whole entry): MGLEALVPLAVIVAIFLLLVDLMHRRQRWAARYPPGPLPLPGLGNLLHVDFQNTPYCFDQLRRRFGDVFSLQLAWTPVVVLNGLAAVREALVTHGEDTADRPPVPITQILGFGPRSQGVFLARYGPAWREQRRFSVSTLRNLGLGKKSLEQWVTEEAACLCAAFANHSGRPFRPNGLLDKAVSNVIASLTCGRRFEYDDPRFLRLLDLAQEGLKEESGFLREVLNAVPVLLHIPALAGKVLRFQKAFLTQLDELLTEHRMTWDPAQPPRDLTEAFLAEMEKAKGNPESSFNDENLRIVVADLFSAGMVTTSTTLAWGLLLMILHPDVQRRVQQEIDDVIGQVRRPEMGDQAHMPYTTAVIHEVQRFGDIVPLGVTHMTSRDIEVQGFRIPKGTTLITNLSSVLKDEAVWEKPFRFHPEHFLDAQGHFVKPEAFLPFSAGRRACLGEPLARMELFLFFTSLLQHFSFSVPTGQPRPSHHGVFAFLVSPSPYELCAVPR

Need IC50, item CC1(C)CC[C@]2(C(=O)O)CC[C@]3(C)C(=CC[C@@H]4[C@@]5(C)C[C@@H](O)[C@H](O)[C@@](C)(CO)[C@@H]5CC[C@]43C)[C@@H]2[C@@H]1O [Arjungenin, arjungenin]
> 49.5 µM

Now give it for CC1(C)CC[C@]2(C(=O)O)CC[C@]3(C)C(=CC[C@@H]4[C@@]5(C)C[C@@H](O)[C@H](O)C(C)(C)[C@@H]5CC[C@]43C)[C@@H]2[C@@H]1O [Arjunic acid] too.
> 51.2 µM

The measured values listed here are drawn from paper PMC5598323.
